- System: rodent lifetime carcinogenesis bioassay, tumor incidence TD50
- assayComment: carcinogenic potency in animals, long-term in vivo studies, CPDB compilation (AID 1745844)
- appliedConditions: mouse; strain Swiss albino; females; in drinking water; site: liver; lesion: hepatoma; dosed 97 weeks; study length 102 weeks
Active and inactive are the calls of the source. How the calls were made is not given here.
outcomeMeasure: TD50

Lab request: please report TD50 under test system rodent lifetime carcinogenesis bioassay, tumor incidence TD50 for `CN(N)C=O`
9.23 mg/kg/day (inactive)

====

- Tested on: rodent lifetime carcinogenesis bioassay, tumor incidence TD50
- assayComment: carcinogenic potency in animals, long-term in vivo studies, CPDB compilation (AID 1745844)
- appliedConditions: mouse; strain Cpb:Swiss random; males; in feed; site: lung; lesion: alveolar-cell tumor; dosed 94 weeks; study length 94 weeks
Active and inactive are the calls of the source. No rule for the calls is given here.
outcomeMeasure: TD50

I have this compound here, OCC(O)[C@@H](O)[C@H](O)[C@H](O)CO[C@H]1O[C@H](CO)[C@@H](O)[C@H](O)[C@H]1O (stereo partly specified) , and I need its recorded TD50.
26200 mg/kg/day (inactive)

====

- Test system: rodent lifetime carcinogenesis bioassay, tumor incidence TD50
- assayComment: carcinogenic potency in animals, long-term in vivo studies, CPDB compilation (AID 1745844)
- appliedConditions: mouse; strain B6C3F1; males; in feed; site: all sites; lesion: malignant lymphoma, mixed type; dosed 103 weeks; study length 104 weeks
outcomeMeasure: TD50
Please state the number and follow it with the unit.

I have this compound here, `N=C1C=CC(=C(c2ccc(N)cc2)c2ccc(N)cc2)C=C1` , and I need its recorded TD50.
610 mg/kg/day

====

- Test system: rodent lifetime carcinogenesis bioassay, tumor incidence TD50
- assayComment: carcinogenic potency in animals, long-term in vivo studies, CPDB compilation (AID 1745844)
- appliedConditions: rat; strain Long-Evans; females; in feed; site: liver; lesion: cholangioma; dosed 78 weeks; study length 104 weeks
Active and inactive are the calls of the source. How the calls were made is not given here.
outcomeMeasure: TD50

I have this molecule here, CC(C)NCC(O)c1ccc(NS(C)(=O)=O)cc1 (stereo unspecified) , and I need its recorded TD50.
12600 mg/kg/day (inactive)

====

- Test system: rodent lifetime carcinogenesis bioassay, tumor incidence TD50
- assayComment: carcinogenic potency in animals, long-term in vivo studies, CPDB compilation (AID 1745844)
- appliedConditions: mouse; strain B6C3F1; females; in feed; site: liver + pituitary gland; lesion: hepatocellular adenoma + hepatocellular carcinoma + adenoma, NOS + carcinoma; dosed 104 weeks; study length 105 weeks
outcomeMeasure: TD50 (mg/kg/day)
Provide only the numeric value, understood in mg/kg/day.

I have this compound here, `C[C@H]1CCCC(=O)CCC/C=C/c2cc(O)cc(O)c2C(=O)O1` , and I need its recorded TD50.
22

====

- Test system: rodent lifetime carcinogenesis bioassay, tumor incidence TD50
- assayComment: carcinogenic potency in animals, long-term in vivo studies, CPDB compilation (AID 1745844)
- appliedConditions: rat; strain Fischer 344; females; inhaled; site: nasal cavity, olfactory epithelium; lesion: neuroblastoma; dosed 105 weeks; study length 105 weeks
outcomeMeasure: TD50

I have this molecule here, `c1ccc2ccccc2c1` , and I need its recorded TD50.
52.9 mg/kg/day

====

- Tested on: rodent lifetime carcinogenesis bioassay, tumor incidence TD50
- assayComment: carcinogenic potency in animals, long-term in vivo studies, CPDB compilation (AID 1745844)
- appliedConditions: mouse; strain B6C3F1; females; inhaled; site: any site (literature study); lesion: several types; types named in the paper; dosed 83 weeks; study length 104 weeks
outcomeMeasure: TD50 (mg/kg/day)
Provide only the numeric value, understood in mg/kg/day.

I have this compound here, `C=CC=C` , and I need its recorded TD50.
6.28

====

- Tested on: rodent lifetime carcinogenesis bioassay, tumor incidence TD50
- assayComment: carcinogenic potency in animals, long-term in vivo studies, CPDB compilation (AID 1745844)
- appliedConditions: mouse; strain B6C3F1; females; by gavage; site: all sites; lesion: lymphoma; dosed 52 weeks; study length 84 weeks
outcomeMeasure: TD50

I have this compound here, `C[C@]12CC[C@@H]3c4ccc(OC(=O)Cc5ccc(N(CCCl)CCCl)cc5)cc4CC[C@H]3[C@@H]1CC[C@@H]2OC(=O)Cc1ccc(N(CCCl)CCCl)cc1` , and I need its recorded TD50.
2.34 mg/kg/day

====

- System: rodent lifetime carcinogenesis bioassay, tumor incidence TD50
- assayComment: carcinogenic potency in animals, long-term in vivo studies, CPDB compilation (AID 1745844)
- appliedConditions: rat; strain Fischer 344; females; by gavage; site: forestomach; lesion: squamous-cell papilloma; dosed 91 weeks; study length 105 weeks
outcomeMeasure: TD50

I have this compound here, `ClCC(Cl)CCl` , and I need its recorded TD50.
1.94 mg/kg/day

====

- Test system: rodent lifetime carcinogenesis bioassay, tumor incidence TD50
- assayComment: carcinogenic potency in animals, long-term in vivo studies, CPDB compilation (AID 1745844)
- appliedConditions: mouse; strain Swiss; females; in drinking water; site: uterus; lesion: malignant tumor; dosed 78 weeks; study length 151 weeks
outcomeMeasure: TD50

I have this compound here, `C=COC(C)=O` , and I need its recorded TD50.
3920 mg/kg/day

====

- System: rodent lifetime carcinogenesis bioassay, tumor incidence TD50
- assayComment: carcinogenic potency in animals, long-term in vivo studies, CPDB compilation (AID 1745844)
- appliedConditions: mouse; strain B6C3F1; females; in drinking water; site: liver; lesion: hepatocellular carcinoma; dosed 96 weeks; study length 110 weeks
Activity calls are given as the source filed them. No rule for the calls is given here.
outcomeMeasure: TD50

I have this compound here, `CC1(C)[C@@H](O[C@H]2O[C@H](C(=O)O)[C@@H](O)[C@H](O)[C@H]2O[C@@H]2O[C@H](C(=O)O)[C@@H](O)[C@H](O)[C@H]2O)CC[C@]2(C)[C@H]3C(=O)C=C4[C@@H]5C[C@@](C)(C(=O)O)CC[C@]5(C)CC[C@@]4(C)[C@]3(C)CC[C@@H]12` , and I need its recorded TD50.
29000 mg/kg/day (inactive)

====

- Tested on: rodent lifetime carcinogenesis bioassay, tumor incidence TD50
- assayComment: carcinogenic potency in animals, long-term in vivo studies, CPDB compilation (AID 1745844)
- appliedConditions: mouse; strain B6C3F1; females; by gavage; site: any site (literature study); lesion: several types; types named in the paper; dosed 103 weeks; study length 104 weeks
Active and inactive are the calls of the source. The rule behind the calls is not given here.
outcomeMeasure: TD50

I have this compound here, CC(=O)OC1CC(C)OC(C)O1 (stereo unspecified) , and I need its recorded TD50.
3380 mg/kg/day (inactive)

Can you handle `O=CCC=O` next?
274 mg/kg/day (inactive)

Can you handle `OC[P+](CO)(CO)CO` next?
908 mg/kg/day (inactive)

Can you handle `ClC(Cl)C(Cl)(Cl)Cl` next?
39.5 mg/kg/day

Can you handle `ClCC(Cl)(Cl)Cl` next?
110 mg/kg/day

Can you handle `CCCN(CCC)S(=O)(=O)c1ccc(C(=O)O)cc1` next?
498 mg/kg/day

Can you handle `[Cl][Hg][Cl]` next?
5.83 mg/kg/day (inactive)

Can you handle `CN(C)c1ccccc1` next?
108 mg/kg/day

Can you handle C=CC1CC=CCC1 (stereo unspecified) next?
149 mg/kg/day

Can you handle `O=c1ccc2ccccc2o1` next?
198 mg/kg/day

Can you handle `OCc1ccccc1` next?
57500 mg/kg/day (inactive)

Can you handle `Nc1ccc([N+](=O)[O-])cc1O` next?
5760 mg/kg/day (inactive)

Can you handle `c1ccc2occc2c1` next?
45.9 mg/kg/day

Can you handle `COc1c(Cl)c(Cl)c(Cl)c(Cl)c1Cl` next?
47.5 mg/kg/day (inactive)

Can you handle `S=[Se]` next?
69.7 mg/kg/day

Can you handle `O=C1CCc2ccccc2O1` next?
541 mg/kg/day

====

- System: rodent lifetime carcinogenesis bioassay, tumor incidence TD50
- assayComment: carcinogenic potency in animals, long-term in vivo studies, CPDB compilation (AID 1745844)
- appliedConditions: mouse; strain B6C3F1; males; in feed; site: lung; lesion: alveolar/bronchiolar adenoma; dosed 78 weeks; study length 78 weeks
Calls of active or inactive are those of the source. How the calls were made is not given here.
outcomeMeasure: TD50

I have this compound here, `CC(=O)Nc1ccc(CC(=O)O)cc1` , and I need its recorded TD50.
27700 mg/kg/day (inactive)

====

- System: rodent lifetime carcinogenesis bioassay, tumor incidence TD50
- assayComment: carcinogenic potency in animals, long-term in vivo studies, CPDB compilation (AID 1745844)
- appliedConditions: rat; strain Fischer 344; females; in drinking water; site: skin; lesion: squamous-cell papilloma; dosed 96 weeks; study length 97 weeks
outcomeMeasure: TD50
Please state the number and follow it with the unit.

I have this compound here, `COc1cc(-c2ccc(N=Nc3c(S(=O)(=O)O)cc4cc(S(=O)(=O)O)cc(N)c4c3O)c(OC)c2)ccc1N=Nc1c(S(=O)(=O)O)cc2cc(S(=O)(=O)O)cc(N)c2c1O` , and I need its recorded TD50.
174 mg/kg/day
